assay explanation: gradient 5% acetonitrile 3 min, to 50% in 2 min, to 85% in 15 min, held 3 min, 100 µL/min
measurement setup: column: Zorbax Extend-C18 2.1 x 50 mm; eluents: water / acetonitrile, 0.1% formic acid
Values of RP-LC retention time greater than or equal to 600 s map to y; values below map to n.

| molecule | category label |
| --- | --- |
| Cc1cc(N2CCN(C(=O)c3cccc(C(F)(F)F)c3)CC2)nc2nncn12 | y |
| O=C(NCCN1CCOCC1)c1ccc(-c2ccc(N3CCCCC3)nc2)cc1 | n |

Q. Identify whether the reported RP-LC retention time of the following molecule is 600 s or greater: O=C(NC1CCN(Cc2ccccc2)CC1)C1CCCN(c2ncc(-c3ccccc3)cn2)C1 (stereo not given)
A. y

Q. Decide: is the reported value of RP-LC retention time for CN(CCNC(=O)C1CCCN(c2ncnc3c2nc2n3CCCCC2)C1)Cc1ccccc1 (stereo not given) equal to or greater than 600 s?
A. y

Q. Hi, just wondering whether CC(COc1ccc(C(C)C)cc1)NC(=O)c1cccs1 (stereo not given) shows RP-LC retention time of 600 s or higher.
A. y

---

assay explanation: gradient 5% acetonitrile 3 min, to 50% in 2 min, to 85% in 15 min, held 3 min, 100 µL/min
measurement setup: column: Zorbax Extend-C18 2.1 x 50 mm; eluents: water / acetonitrile, 0.1% formic acid
value type: RP-LC retention time (s)
Note: unit s is implicit; provide only the numeric part.

Some solved cases for reference:
| compound | RP-LC retention time, s |
| --- | --- |
| Cc1cc(C2CCCN2C(=O)c2cc(-c3ccccc3)no2)no1 (stereo not given) | 868 |
| Cc1ccc(C)c(NC(=O)N2CCN(CCn3c(C(C)C)nc4cccnc43)CC2)c1 | 621 |
| Nc1nc(SCC(=O)NCC2CCCO2)n[nH]1 (stereo not given) | 469 |
| CC(C)CC(=O)NCCC1CCN(C(=O)Nc2cc(F)ccc2F)CC1 | 1190 |
| CCc1nnc(C2CN(C)CC23CCN(S(=O)(=O)c2ccc(C)c(Cl)c2)CC3)o1 (stereo not given) | 675 |
| Cc1ccccc1NC(=O)c1cc(C(C)(C)C)n2nccc2n1 | 1310 |

Q. Returns the measured RP-LC retention time for the input compound. Input: CC(C)NC(=O)N1CCOc2ccc(CCC(=O)O)cc2C1
A. 671

Q. Item under review: O=C(c1ccc(Cl)c(Cl)c1)N1CCN(Cc2nncn2C2CCCCC2)CC1 . Reported RP-LC retention time?
A. 708

Q. GET /values?readout=RP-LC retention time&item= O=C(Nc1ccc(F)cc1)C(=O)c1ccc[nH]1
A. 821

Q. Could you share which RP-LC retention time value was measured for Cc1nc(-c2noc(-c3ccccc3)n2)cn1CC(=O)Nc1ccc(F)c(Cl)c1 ?
A. 917

---

Form field: RP-LC retention time (one value per entry).
assay explanation: gradient 5% acetonitrile 3 min, to 50% in 2 min, to 85% in 15 min, held 3 min, 100 µL/min
measurement setup: column: Zorbax Extend-C18 2.1 x 50 mm; eluents: water / acetonitrile, 0.1% formic acid
Return type: number; implicit unit s.

| compound | reported result |
| --- | --- |
| CCOc1ccc(NC(=O)c2cc(S(=O)(=O)N3CCC(C)CC3)cn2C)cc1 | 1070 |
| Cc1cc(N2CCN(C(=O)C3CCCCC3)CC2)nc(N2CCCC2)n1 | 672 |

Q. What does the data say about its RP-LC retention time? Entry: O=C(c1ccsc1)N1CCN(c2ncnc3c2CCC3)CC1
A. 557

Q. // lookup RP-LC retention time for Cn1c(=O)n(C)c2cc(CNC(C)(C)CC(C)(C)C)ccc21
A. 624

Q. Quick one: RP-LC retention time of O=C1C(c2ccncc2)N(CCCc2ccccc2)C(=O)CN1c1ccccc1 (stereo not given) ?
A. 719

Q. Need RP-LC retention time of C=CCN1C(=O)C(C)(C)COc2cc(NS(=O)(=O)c3ccc(Cl)s3)ccc21 , thanks.
A. 975

Q. Dear colleague, I am looking for the recorded RP-LC retention time of the following compound: Cn1nc(C2CCN(S(=O)(=O)c3cccc(Cl)c3)CC2)n(C2CCCC2)c1=O
A. 925

Q. GET /values?readout=RP-LC retention time&item= COc1cc(NC(=O)C2CCCN(c3nc4ccccc4nc3C(F)(F)F)C2)cc(OC)c1 (stereo not given)
A. 1180

Q. If you can, please state the reported RP-LC retention time value of O=C(c1cc2c(=O)n(Cc3ccccc3)ccc2s1)N1CCOCC1 .
A. 716

Q. Which RP-LC retention time value is on record for Cn1c(=O)n(C)c2cc(S(=O)(=O)NCC(=O)O)ccc21 ?
A. 566
